System: K. pneumoniae ATCC BAA-1705
test description: MIC, agar plate dilution method, K. pneumoniae ATCC BAA-1705
Type: cell-based, Klebsiella pneumoniae
test settings: K. pneumoniae ATCC BAA-1705, KPC-producing strain
Recorded minimal inhibitory concentration (MIC) for the following molecules

Past entries and their recorded results:
# molecule, minimal inhibitory concentration (MIC)
rows = [
    ("CNC1C(OC2OC(CO)C(N)CC2O)OC2CC(N)C(OC3C(N)CC(N)C(O)C3N)OC2C1O (centres unmarked) [Compound N9, 5-amino-5,3″-dideoxy-5-epiapramycin]", "2 µg/mL"),
    ("CN[C@@H]1[C@@H](O[C@H]2O[C@H](CO)[C@@H](NC(=O)[C@H](N)CO)[C@H](O)[C@H]2O)O[C@H]2C[C@@H](N)[C@@H](O[C@H]3[C@H](O)[C@@H](O)[C@H](N)C[C@@H]3N)O[C@@H]2[C@@H]1O [Compound V1-f, 4″-N-(D-seryl)apramycin]", "4 µg/mL"),
    ("CNC1C(OC2OC(CO)C(NC(=N)N)CC2O)OC2CC(N)C(OC3CC(O)C(N)CC3N)OC2C1O (centres unmarked) [Compound U4-a]", "1 µg/mL"),
]

## Task Quick one: minimal inhibitory concentration (MIC) for CN[C@@H]1[C@@H](O[C@H]2O[C@H](C)[C@@H](N)C[C@H]2O)O[C@H]2C[C@@H](N)[C@@H](O[C@H]3[C@H](O)[C@@H](O)[C@H](N)C[C@@H]3N)O[C@@H]2[C@@H]1O [Compound K4, 3″,6″-dideoxyapramycin] ?
## Result 2 µg/mL

## Task Entry CNC1C(OC2OC(CO)C(NC(=N)N)C(O)C2O)OC2CC(N)C(OC3C(N)CC(N)C(O)C3N)OC2C1O (centres unmarked) [Compound W2-a] please
## Result 1 µg/mL

## Task Entry CNC1C(OC2OC(CO)C(N)C(O)C2O)OC2CC(N)C(OC3C(N)CC(N)C(O)C3O)OC2C1O (centres unmarked) [Compound I3, 2″,3″-diepiapramycin] please
## Result 4 µg/mL

## Task Entry CNCC(=O)N[C@@H]1C(CO)O[C@H](OC2O[C@H]3CC(N)[C@@H](O[C@@H]4C(N)C[C@@H](N)C(O)[C@H]4O)OC3C(O)C2NC)C(O)[C@H]1O (stereo partly drawn) [Compound V1-j, 5-epi-4″-N-sarcosylapramycin] please
## Result 1 µg/mL

## Task Entry CNC1C(OC2OC(CO)C(N)CC2O)OC2CC(N)C(OC3C(N)CC(N)C(O)C3O)OC2C1O (centres unmarked) [Compound M9, 3″-deoxy-5-epiapramycin] please
## Result 1 µg/mL

## Task Entry CN[C@@H]1[C@@H](O[C@H]2O[C@H](CO)[C@@H](N)[C@H](O)[C@H]2O)O[C@H]2C[C@@H](N)[C@@H](O[C@@H]3[C@@H](N)C[C@@H](N)C[C@@H]3O)O[C@@H]2[C@@H]1O [Compound C6, 6-deoxy-5-epiapramycin] please
## Result 2 µg/mL

* * *

System: S. aureus RN4220
test description: MIC, agar plate dilution method, S. aureus RN4220
Format: cell-based, Staphylococcus aureus
test settings: S. aureus RN4220, Sensitive bacterium
measurement name: minimal inhibitory concentration (MIC) (µg/mL)
Write the number in µg/mL without appending the unit.

# compound, measurement name, value unit, obs value
data = [
    ("CN[C@@H]1[C@@H](O[C@H]2O[C@H](CO)[C@@H](NC(CN)CN)[C@H](O)[C@H]2O)O[C@H]2C[C@@H](N)[C@@H](O[C@H]3[C@@H](O)[C@@H](O)[C@H](N)C[C@@H]3N)O[C@@H]2[C@@H]1O [Compound S1-i]", "minimal inhibitory concentration (MIC)", "µg/mL", 2),
    ("CNC1C(O[C@H]2OC(CO)[C@@H](NCCCN)[C@H](O)C2O)O[C@H]2CC(N)[C@@H](O[C@@H]3C(N)C[C@@H](N)C(O)[C@H]3O)OC2C1O (stereo partly shown) [Compound S1-h, 4″-N-(3-aminopropyl)-5-epiapramycin]", "minimal inhibitory concentration (MIC)", "µg/mL", 2),
    ("CN[C@@H]1[C@@H](O[C@H]2O[C@H](CO)[C@@H](N)C[C@H]2O)O[C@H]2C[C@@H](N)[C@@H](O[C@@H]3[C@@H](N)C[C@@H](N)C[C@@H]3O)O[C@@H]2[C@@H]1O [Compound N5, 6,3″-dideoxy-5-epiapramycin]", "minimal inhibitory concentration (MIC)", "µg/mL", 2),
]

## Task Quick one: minimal inhibitory concentration (MIC) for CN[C@@H]1[C@@H](O[C@@H]2C[C@H](O)[C@H](N)[C@@H](CO)O2)O[C@H]2C[C@@H](N)[C@@H](O[C@H]3[C@@H](F)[C@@H](O)[C@H](N)C[C@@H]3N)O[C@@H]2[C@@H]1O [Compound O5] ?
## Result 1

* * *

Recorded MIC for the following molecules
Tested on: A. baumannii ATCC BAA-1710
test description: MIC, agar plate dilution method, A. baumannii ATCC BAA-1710
Type: cell-based, Acinetobacter baumannii
test settings: Acinetobacter baumannii, ATCCBAA1710, A. baumannii ATCC BAA-1710, MDRA, read-out: minimal inhibitory concentration (MIC)
Write the number in µg/mL without appending the unit.

# molecule, assay target, obs value
records = [
    ("CNC1C(O[C@H]2OC(CO)[C@@H](NCCN)[C@H](O)C2O)O[C@H]2CC(N)[C@@H](O[C@H]3CC[C@H](N)CC3N)OC2C1O (some centres unmarked)", "A. baumannii ATCC BAA-1710", 8),
]

For the next question, use this molecule.
## Task Quick one: MIC for CNC1C(O[C@H]2OC(CO)[C@@H](NC(=O)CCN)[C@H](O)C2O)O[C@H]2C[C@H](N)[C@@H](O[C@@H]3C(N)C[C@@H](N)C(O)[C@H]3O)OC2C1O (stereo partly drawn) [Compound V1-m, 4″-N-(β-alanyl)-5-epiapramycin] ?
## Result 8

* * *

Recorded minimal inhibitory concentration (MIC) for the following compounds
Tested on: S. marcescens GN6944
test description: MIC, agar plate dilution method, S. marcescens GN6944
Type: cell-based, Serratia marcescens
test settings: S. marcescens GN6944, GM-resistant
Write the number in µg/mL without appending the unit.

Past entries and their recorded results:
# compound, minimal inhibitory concentration (MIC) [µg/mL]
measured = [
    ("CNC1C(OC2OC(CO)C(NC(=O)C(N)CO)C(O)C2O)OC2CC(N)C(OC3C(N)CC(N)C(O)C3O)OC2C1O [Compound V1-l, 5-epi-4″-N-(L-seryl)apramycin]", 8),
    ("CNC1C(OC2OC(CO)C(N)CC2O)OC2CC(N)C(OC3C(N)CC(N)C(O)C3O)OC2C1O (stereo not shown) [Compound M9, 3″-deoxy-5-epiapramycin]", 4),
    ("CNCC(=O)N[C@@H]1C(CO)O[C@H](OC2O[C@H]3CC(N)[C@@H](O[C@@H]4C(N)C[C@@H](N)C(O)[C@H]4O)OC3C(O)C2NC)C(O)[C@H]1O (stereo partly drawn) [Compound V1-j, 5-epi-4″-N-sarcosylapramycin]", 8),
    ("CNC1C(O[C@H]2OC(CO)[C@@H](NC)[C@H](O)C2O)O[C@H]2CC(N)[C@@H](O[C@@H]3C(N)C[C@@H](N)C(O)[C@H]3O)OC2C1O (stereo partly drawn) [Compound S1-f, 5-epi-4″-N-methylapramycin]", 4),
    ("CN[C@@H]1[C@@H](O[C@H]2O[C@H](CO)[C@@H](N)[C@@H](O)[C@H]2O)O[C@H]2C[C@@H](N)[C@@H](O[C@H]3[C@H](O)[C@@H](O)[C@H](N)C[C@@H]3N)O[C@@H]2[C@@H]1O [Compound H3, 3″-epiapramycin]", 8),
]

## Task Quick one: minimal inhibitory concentration (MIC) for CNC1C(OC2OC(CO)C(N)C(O)C2O)OC2CC(N)C(OC3C(N)CC(N)C(O)C3N)OC2C1O (stereo not shown) [Compound D2, 5-amino-5-deoxy-5-epiapramycin] ?
## Result 4

## Task Entry CNC1C(OC2OC(CO)C(NC(=N)N)CC2O)OC2CC(N)C(OC3C(N)CC(N)C(O)C3O)OC2C1O (stereo not shown) [Compound X4-a] please
## Result 4

## Task Entry CNC1C(OC2OC(CO)C(N)C(O)C2O)OC2CC(N)C(OC3C(N)CC(N)C(O)C3O)OC2C1O (stereo not shown) [Compound B5, 5-epiapramycin] please
## Result 8

## Task Entry CN[C@@H]1[C@@H](O[C@H]2O[C@H](CO)[C@@H](N)[C@H](O)[C@H]2O)O[C@H]2C[C@@H](N)[C@@H](O[C@@H]3[C@@H](N)C[C@@H](N)C[C@@H]3O)O[C@@H]2[C@@H]1O [Compound C6, 6-deoxy-5-epiapramycin] please
## Result 4

## Task Entry CNC1C(CO)OC(OC2OC3CC(N)C(OC4C(N)CC(N)CC4O)OC3C(O)C2NC)C(O)C1O (stereo not drawn) [Compound S1-l, 6-deoxy-5-epi-4″-N-methylapramycin] please
## Result 2
